Biological target: MycC Protein (Homo sapiens, UniProt P01106)
Construct: endogenous in cells; host or cells: HL-60 or SKNBE2
Sequence (P01106 whole entry): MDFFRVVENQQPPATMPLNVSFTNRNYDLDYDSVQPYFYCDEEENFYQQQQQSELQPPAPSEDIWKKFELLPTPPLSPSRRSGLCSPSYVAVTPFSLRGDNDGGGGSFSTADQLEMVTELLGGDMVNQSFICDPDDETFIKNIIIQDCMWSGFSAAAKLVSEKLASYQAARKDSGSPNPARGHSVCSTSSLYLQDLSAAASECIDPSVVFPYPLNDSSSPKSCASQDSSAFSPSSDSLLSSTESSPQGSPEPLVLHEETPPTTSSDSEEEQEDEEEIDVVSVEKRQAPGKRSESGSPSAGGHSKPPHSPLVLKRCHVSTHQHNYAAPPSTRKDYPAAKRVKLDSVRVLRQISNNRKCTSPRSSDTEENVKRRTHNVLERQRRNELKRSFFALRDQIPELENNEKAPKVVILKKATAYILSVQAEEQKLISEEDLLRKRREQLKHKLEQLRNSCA
Test: Degradation of MycC protein, Western blot band density in cells
Format: cell-based
Conditions: HL-60 or SKNBE2 cells; 6 uL of compound (1 mM) added to 3 mL cells; 6 hours; Western blot band density (ImageJ)
Measured metric: Dmax at 2 µM

Worked examples follow.
Bench note: what Dmax at 2 µM did CN(C(=O)NC1Cc2ccc(C#N)cc2C1)[C@H]1CC[C@H](N(C)c2nccc(Nc3cc(C4CCCC4)[nH]n3)n2)CC1 (stereo partly shown) show?
50 to 79%

Find the recorded Dmax at 2 µM belonging to O=C(NC1CCC(Nc2nccc(Nc3cc(C4CCCC4)[nH]n3)n2)CC1)NC1CCN(C2CC2)C1 (stereo not shown) and report it.
20 to 49%

What Dmax at 2 µM value was documented for this molecule, O=C(NC1CCC(N2CCOC2=O)CC1)N[C@H]1CC[C@H](Nc2nccc(Nc3cc(C4CCCC4)[nH]n3)n2)CC1 (stereo partly shown) ?
< 20%

Can you share its Dmax at 2 µM? I mean this molecule: `O=C(Nc1cccc(C(F)(F)F)c1)N[C@H]1C[C@H](Nc2nccc(Nc3cc(C4CCCC4)[nH]n3)n2)C1`
20 to 49%

Find the recorded Dmax at 2 µM belonging to CO[C@H]1C[C@H](NC(=O)NC2CCC(Nc3nccc(Nc4cc(C5CCCC5)[nH]n4)n3)CC2)C1 (stereo partly shown) and report it.
20 to 49%

Record request: Dmax at 2 µM value, item `O=C(NC1CCN(Cc2ncccn2)CC1)N[C@H]1CC[C@H](Nc2nccc(Nc3cc(C4CCCC4)[nH]n3)n2)CC1`
20 to 49%

Others:
What value of measured Dmax at 2 µM is listed for `Cc1cc(Nc2ccnc(N[C@H]3CC[C@H](NC(=O)N[C@@H]4CCC[C@H](C(F)(F)F)C4)CC3)n2)n[nH]1` ?
< 20%
